Value source: patent US7863449B2

# system_tested: M4 muscarinic receptor (Homo sapiens)
# Construct: expressed in transfected cells; host or cells: CHO (M4-CHO)
# Sequence (P08173 whole entry): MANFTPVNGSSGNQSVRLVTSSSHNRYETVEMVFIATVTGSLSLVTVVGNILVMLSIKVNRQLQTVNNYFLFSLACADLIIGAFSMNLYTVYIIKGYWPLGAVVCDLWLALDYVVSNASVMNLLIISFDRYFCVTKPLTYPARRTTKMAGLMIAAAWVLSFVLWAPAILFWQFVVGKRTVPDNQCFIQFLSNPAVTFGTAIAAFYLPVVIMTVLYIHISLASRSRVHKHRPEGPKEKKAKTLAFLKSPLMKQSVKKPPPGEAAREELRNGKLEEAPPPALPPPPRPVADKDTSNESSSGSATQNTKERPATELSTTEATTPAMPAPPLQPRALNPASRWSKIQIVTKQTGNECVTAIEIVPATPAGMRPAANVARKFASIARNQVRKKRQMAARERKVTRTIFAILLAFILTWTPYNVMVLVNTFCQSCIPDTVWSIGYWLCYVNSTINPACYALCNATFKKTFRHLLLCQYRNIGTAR
# protocol_text: Functional mobilization of intracellular calcium (FLIPR), M4-CHO cells
# Format: cell-based
# condition_details: 100% efficacy is the maximum response obtained using Carbachol as a control
The following compounds are shown together with reported Emax values.

- compound: "O=C(c1ccccc1)N1CCC(N2CCC3(CC2)c2ccccc2C(=O)N3Cc2ccccc2)CC1 [compound 42]"
  system_tested: "M4 muscarinic receptor (Homo sapiens)"
  Emax: "< 25%"
- compound: "COCCOC(=O)N1Cc2ccccc2C2(CCN(C3CC4CCC(C3)N4C(=O)OC(C)C)CC2)C1 (stereo not shown) [compound 157]"
  system_tested: "M4 muscarinic receptor (Homo sapiens)"
  Emax: "25 to 100%"
- compound: "CC(=O)N1Cc2ccccc2C2(CCN(C3CC4CCC(C4)C3)CC2)C1 (stereo not shown) [compound 21]"
  system_tested: "M4 muscarinic receptor (Homo sapiens)"
  Emax: "25 to 100%"
- compound: "CC(=O)N1Cc2ccccc2C2(CCN(C3CCN(C(=O)O[C@@H]4CCOC4)CC3)CC2)C1 [compound 32]"
  system_tested: "M4 muscarinic receptor (Homo sapiens)"
  Emax: "25 to 100%"
